Test system: SBC-3 (Small Cell Lung Carcinoma)
Experiment: combination Emax (second highest fraction inhibited in the dose matrix, 72 h); higher = more inhibition; extreme values may be limits of the assay
combination Emax: recorded values
Give the figure by itself; no unit, no explanation.

compound	target-desc	combination Emax
CC1(C)CCC(CN2CCN(c3ccc(C(=O)NS(=O)(=O)c4ccc(NCC5CCOCC5)c([N+](=O)[O-])c4)c(Oc4cnc5[nH]ccc5c4)c3)CC2)=C(c2ccc(Cl)cc2)C1 [Venetoclax] + Cc1cc2ncnn2cc1Nc1ncc2c(n1)n(C1CCOCC1)c(=O)n2C [AZD7648] (first compound max 1 µM, 7x7, partner max 10 µM)	SBC-3 (Small Cell Lung Carcinoma)	0.543
CC1(C)CCC(CN2CCN(c3ccc(C(=O)NS(=O)(=O)c4ccc(NCC5CCOCC5)c([N+](=O)[O-])c4)c(Oc4cnc5[nH]ccc5c4)c3)CC2)=C(c2ccc(Cl)cc2)C1 [Venetoclax] + CCN(CCO)CCCOc1ccc2c(Nc3cc(CC(=O)Nc4cccc(F)c4)[nH]n3)ncnc2c1 [AZD2811] (first compound max 1 µM, 7x7, partner max 1 µM)	SBC-3 (Small Cell Lung Carcinoma)	0.766

Lookup: Which combination Emax value is on record for NC1(C(=O)N[C@@H](CCO)c2ccc(Cl)cc2)CCN(c2ncnc3[nH]ccc23)CC1 [Capivasertib] + COc1nnc2ccc(N3CCC(c4ccc(OCCN5CCN(C)C(=O)[C@H]5C)cc4)CC3)nn12 [AZD5153] (first compound max 10 µM, 7x7, partner max 1 µM) ?
Found: 0.744

---

System: L-363 (Plasma Cell Myeloma);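 note: after 72 h of two-drug dosing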
Assay: Bliss excess, mean over the matrix (fraction); higher = more synergy
Bliss excess: recorded values
Give the figure by itself; no unit, no explanation.

Solved entries:
molecule	Bliss excess
Cc1c2c(nn1C)CSCc1cc(n(C)n1)CSc1cc(c3ccccc3c1)OCCCc1c(C(=O)O)n(C)c3c-2c(Cl)ccc13 [AZD5991] + CC1(C)CCC(CN2CCN(c3ccc(C(=O)NS(=O)(=O)c4ccc(NCC5CCOCC5)c([N+](=O)[O-])c4)c(Oc4cnc5[nH]ccc5c4)c3)CC2)=C(c2ccc(Cl)cc2)C1 [Venetoclax] (first compound max 1 µM, 7x7, partner max 1 µM)	0.0519
NC1(C(=O)N[C@@H](CCO)c2ccc(Cl)cc2)CCN(c2ncnc3[nH]ccc23)CC1 [Capivasertib] + CCN(CCO)CCCOc1ccc2c(Nc3cc(CC(=O)Nc4cccc(F)c4)[nH]n3)ncnc2c1 [AZD2811] (first compound max 10 µM, 7x7, partner max 1 µM)	-0.0235

Now let's try a different one.
Lookup: Recorded Bliss excess for CC1(C)CCC(CN2CCN(c3ccc(C(=O)NS(=O)(=O)c4ccc(NCC5CCOCC5)c([N+](=O)[O-])c4)c(Oc4cnc5[nH]ccc5c4)c3)CC2)=C(c2ccc(Cl)cc2)C1 [Venetoclax] + C[C@@H]1COCCN1C2=NC(=NC(=C2)C3(CC3)[S@](=N)(=O)C)C4=C5C=CNC5=NC=C4 [AZD6738] (first compound max 1 µM, 7x7, partner max 10 µM) with L-363 (Plasma Cell Myeloma), please?
Found: 0.0331

---

combination Emax: recorded values
Tested on: C32 (Melanoma)
Experiment: combination Emax (second highest fraction inhibited in the dose matrix, 72 h); higher = more inhibition; extreme values may be limits of the assay
Give the figure by itself; no unit, no explanation.

Lookup: Recorded combination Emax for O=C(c1cc(Cc2n[nH]c(=O)c3ccccc23)ccc1F)N1CCN(C(=O)C2CC2)CC1 [Olaparib] + Cc1c2c(nn1C)CSCc1cc(n(C)n1)CSc1cc(c3ccccc3c1)OCCCc1c(C(=O)O)n(C)c3c-2c(Cl)ccc13 [AZD5991] (first compound max 10 µM, 7x7, partner max 1 µM) with C32 (Melanoma), please?
Found: 0.0885

Lookup: Recorded combination Emax for C[C@@H](Nc1cc(F)cc(F)c1)c1cc(C(=O)N(C)C)cc2c(=O)cc(N3CCOCC3)oc12 [AZD8186] + CC(=O)c1c(C)c2cnc(Nc3ccc(N4CCNCC4)cn3)nc2n(C2CCCC2)c1=O [Palbociclib] (first compound max 10 µM, 7x7, partner max 10 µM) with C32 (Melanoma), please?
Found: 0.342
